# measurement_target: fusion protein PRV
# Sequence (chain, as listed by the source): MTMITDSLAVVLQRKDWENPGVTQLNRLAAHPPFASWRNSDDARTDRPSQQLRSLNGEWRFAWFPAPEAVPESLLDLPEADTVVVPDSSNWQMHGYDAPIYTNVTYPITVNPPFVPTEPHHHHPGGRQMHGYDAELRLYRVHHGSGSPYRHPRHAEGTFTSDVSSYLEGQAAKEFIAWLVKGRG
reported_property: relative cleavage efficiency

>>> measured("OmpT protease variant OmpT D97P (protein) STETLSFTPDNINADISLGTLSGKTKERVYLAEEGGRKVSQLDWKFNNAAIIKGAINWDLMPQISIGAAGWTTLGSRGGNMVDQDWMDSSNPGTWTPESRHPDTQLNYANEFDLNIKGWLLNEPNYRLGLMAGYQESRYSFTARGGSYIYSSEEGFRDDIGSFPNGERAIGYKQRFKMPYIGLTGSYRYEDFELGGTFKYSGWVESSDNDEHYDPGKRITYRSKVKDQNYYSVAVNAGYYVTPNAKVYVEGAWNRVTNKKGNTSLYDHNNNTSDYSKNGAGIENYNFITTAGLKYTF")
"less than 3.0%"
>>> measured("OmpT protease variant OmpT D97W (protein) STETLSFTPDNINADISLGTLSGKTKERVYLAEEGGRKVSQLDWKFNNAAIIKGAINWDLMPQISIGAAGWTTLGSRGGNMVDQDWMDSSNPGTWTWESRHPDTQLNYANEFDLNIKGWLLNEPNYRLGLMAGYQESRYSFTARGGSYIYSSEEGFRDDIGSFPNGERAIGYKQRFKMPYIGLTGSYRYEDFELGGTFKYSGWVESSDNDEHYDPGKRITYRSKVKDQNYYSVAVNAGYYVTPNAKVYVEGAWNRVTNKKGNTSLYDHNNNTSDYSKNGAGIENYNFITTAGLKYTF")
"less than 3.0%"
